Measured pIC50, listed per entry.
study_target: IFI16HinAB (Homo sapiens, UniProt Q16666-2 159-729)
Sequence (Q16666 other isoform, or with tags, fused parts or gaps): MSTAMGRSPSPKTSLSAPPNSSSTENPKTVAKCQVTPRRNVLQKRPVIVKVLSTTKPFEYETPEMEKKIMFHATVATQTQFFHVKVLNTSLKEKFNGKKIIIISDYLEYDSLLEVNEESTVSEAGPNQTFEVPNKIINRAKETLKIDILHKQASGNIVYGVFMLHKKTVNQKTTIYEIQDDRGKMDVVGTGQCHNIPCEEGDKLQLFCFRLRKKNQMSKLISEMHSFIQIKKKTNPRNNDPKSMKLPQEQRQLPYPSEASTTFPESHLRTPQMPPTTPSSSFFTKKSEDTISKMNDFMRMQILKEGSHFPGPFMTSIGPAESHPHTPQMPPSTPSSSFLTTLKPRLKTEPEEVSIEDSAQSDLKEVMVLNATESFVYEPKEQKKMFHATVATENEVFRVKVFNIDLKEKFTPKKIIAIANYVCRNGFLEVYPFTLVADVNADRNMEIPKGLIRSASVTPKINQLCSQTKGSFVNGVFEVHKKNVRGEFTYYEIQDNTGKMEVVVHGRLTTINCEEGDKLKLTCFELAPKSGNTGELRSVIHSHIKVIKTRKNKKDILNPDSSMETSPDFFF
test_details: competition fluorescence anisotropy; unlabelled competitor against 6 nM 60-bp FAM-dsDNA, 400 nM protein; 160 mM KCl (60 mM KCl for IFI16HinAB); buffer, pH and temperature not given in the available text
assay_context: protein: recombinant
API: returns pIC50 as number; meaning -log10 of concentration in mol/L.

| binder | pIC50 |
| --- | --- |
| 60-bp dsRNA (dsRNA) RNA 1: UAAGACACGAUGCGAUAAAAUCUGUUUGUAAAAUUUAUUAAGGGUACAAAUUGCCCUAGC RNA 2: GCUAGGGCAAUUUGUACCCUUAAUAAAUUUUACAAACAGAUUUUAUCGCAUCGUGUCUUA | 5.84 |

Recorded pIC50 for 60-bp dsDNA (dsDNA) DNA 1: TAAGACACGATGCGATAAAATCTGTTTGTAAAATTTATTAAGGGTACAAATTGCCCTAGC DNA 2: GCTAGGGCAATTTGTACCCTTAATAAATTTTACAAACAGATTTTATCGCATCGTGTCTTA , please?
6.59

Input 60-base ssRNA_A (ssRNA) RNA: AAAGAAAGAAAGAAAGAAAGAAAGAAAGAAAGAAAGAAAGAAAGAAAGAAAGAAAGAAAG
5.71

Input 60-base ssDNA_A (ssDNA) DNA: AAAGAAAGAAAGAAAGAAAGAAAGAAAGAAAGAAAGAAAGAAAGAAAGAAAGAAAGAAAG
5.52

Input 60-base ssDNA_T (ssDNA) DNA: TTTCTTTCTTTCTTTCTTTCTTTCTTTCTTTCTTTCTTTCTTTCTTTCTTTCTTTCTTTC
5.86

Input 60-bp DNA:RNA hybrid (DNA:RNA) DNA: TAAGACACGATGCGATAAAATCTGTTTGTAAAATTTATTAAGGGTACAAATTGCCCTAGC RNA: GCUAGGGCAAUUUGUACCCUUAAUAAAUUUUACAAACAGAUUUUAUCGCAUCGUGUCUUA
6.21
